Recorded values, source paper PMC5540273.

- Tested on: PAK7
- CONDITION_INFO: concentration: 1 μM, replicates: in singlicate; n = 1;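 also: KINOMEscan kinase panel screen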
QUANTITY_KIND: %Inh
Quick note: unit goes after the number.

Write down the reported %Inh (system: PAK7) of `Fc1ccc(-c2ncn(CCCN3CCOCC3)c2-c2cccnc2)cc1` 0%

Write down the reported %Inh (system: PAK7) of `Cl.Cl.Cl.Fc1ccc(-c2ncn(C3CCNCC3)c2-c2ccnc(Nc3ccccc3)n2)cc1` 10%

Write down the reported %Inh (system: PAK7) of Cc1nnc(-c2ccc3occ(-c4ccc(C(C)O)cc4)c3c2)o1 (stereo not drawn) 1%

Write down the reported %Inh (system: PAK7) of `CNc1ncnc2[nH]ncc12` 0%

Write down the reported %Inh (system: PAK7) of COc1ccc(Nc2nccc(N3CCC(NC(=O)Nc4cccc(C(C)=O)c4)C3)n2)cc1 (stereo not drawn) 0%

Write down the reported %Inh (system: PAK7) of `Cl.Nc1ncnc2occ(-c3ccc(NC(=O)Nc4cc(C(F)(F)F)ccc4F)cc3)c12` 26%

Write down the reported %Inh (system: PAK7) of `CCCCCc1nc2c(N)ncnc2n1CCCCC` 0%

Write down the reported %Inh (system: PAK7) of `CN1c2ccc(NCc3ccc(F)cc3)cc2-c2c(cnn2C)S1(=O)=O` 0%

Write down the reported %Inh (system: PAK7) of `Cc1c2ccc(N(C)c3ccnc(Nc4cccc(S(N)(=O)=O)c4)n3)cc2nn1Cc1ccccc1.Cl.Cl` 10%

---

- Test system: ARK5
- Construct: gene NUAK1
- CONDITION_INFO: concentration: 1 μM, replicates: in singlicate; n = 1
QUANTITY_KIND: %Inh (%)
Please give a number only; it is taken to be in %.

Provide %Inh value for the following molecule: `N#Cc1ccc(-c2cc(-c3c[nH]nc3-c3ccccn3)ccn2)cc1` 27

Provide %Inh value for the following molecule: `CN1c2ccc(CNc3ccc(F)cc3)cc2-c2c(cnn2C)S1(=O)=O` 6

Provide %Inh value for the following molecule: `Fc1ccc(-c2nn3c(OCC(F)(F)F)cccc3c2-c2ccncc2)cc1` 0

Provide %Inh value for the following molecule: `CNc1ncnc2[nH]ncc12` 0

Provide %Inh value for the following molecule: `[2H]C([2H])(c1cccc(C(F)(F)F)c1C)n1ccn2c(=O)nc(N3CCOCC3)cc12` 0

Provide %Inh value for the following molecule: Cc1c(Cn2c(C)nn3c(=O)cc(N4CCOC(C)C4)nc23)cccc1C(F)(F)F (stereo not drawn) 10

Provide %Inh value for the following molecule: `CC(C)Oc1ccc2c(-c3ccnc(Nc4ccc(N5CCN(C)CC5)cc4)n3)cnn2n1` 95.5

Provide %Inh value for the following molecule: `Cc1nnc(-c2ccc(C)c(-c3ccc(C(=O)Nc4ccc(NS(C)(=O)=O)cc4)cc3)c2)o1` 0

Provide %Inh value for the following molecule: `CN(C1=C(c2ccccc2)C(=O)NC1=O)c1ccccc1` 42

---

Please provide measured %Inh for the entries that follow.
- Test system: HIPK2
- CONDITION_INFO: concentration: 1 μM, replicates: in singlicate; n = 1
Please give a number only; it is taken to be in %.

Provide %Inh value for the following compound: `Cn1cc(-c2ccc3c(c2)CCN3C(=O)Cc2ccccc2Cl)c2c(N)ncnc21` 0

Provide %Inh value for the following compound: `COc1ccc(COc2cc(-n3cnc4ccccc43)sc2C(N)=O)cc1` 18

Provide %Inh value for the following compound: `c1ccc(-c2cc(-c3c[nH]nc3-c3ccccn3)ccn2)cc1` 0

Provide %Inh value for the following compound: Cc1nnc(-c2ccc3occ(-c4ccc(C(C)O)cc4)c3c2)o1 (stereo not drawn) 56

Provide %Inh value for the following compound: `Cc1ccc(C(=O)NCC(N)=O)cc1-n1c(C)cc(OCc2ccc(F)cc2F)c(Br)c1=O` 0

Provide %Inh value for the following compound: `CN(C(=O)c1ccc(-c2cc(-c3c[nH]nc3-c3ccccn3)ccn2)cc1)C1CCOCC1` 25

Provide %Inh value for the following compound: `CCCCCc1nc2c(N)ncnc2n1CCCCC` 0

Provide %Inh value for the following compound: `Nc1nc(-c2ccc3c(N)n[nH]c3c2)cc(N2CCCC2)n1` 0

Provide %Inh value for the following compound: `O=C(NCCNc1ccnc(Nc2ccc(F)cc2)n1)c1cc2ccccc2s1` 0
